biological target: Bcl-2 protein (histag-Bcl-2, UniProtKB P10415) (Homo sapiens (Human), UniProt P10415); experiment: Inhibition of Bcl-2 by the fluorescence polarisation technique; format: binding; settings: incubation for 2 hours, read-out: IC50 (nM) Bcl-2 FP
Sequence (P10415 whole entry): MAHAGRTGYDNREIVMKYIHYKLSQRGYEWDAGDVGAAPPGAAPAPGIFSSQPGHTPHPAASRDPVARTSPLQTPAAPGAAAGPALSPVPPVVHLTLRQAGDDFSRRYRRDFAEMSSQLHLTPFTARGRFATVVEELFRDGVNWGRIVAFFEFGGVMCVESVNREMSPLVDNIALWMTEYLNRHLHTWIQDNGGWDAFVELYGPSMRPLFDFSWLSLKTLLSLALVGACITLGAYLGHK
Structures can show the parent of a compound that is named as a salt.
attribute.measured: IC50 (nM)

Answered cases to consult:
{"compound": "Cc1c(C(=O)N(c2ccc(O)cc2)c2cnc3c(ccn3C)c2)cc(-c2cc3c(cc2C(=O)N2Cc4ccccc4C[C@H]2CN2CCOCC2)OCO3)n1C [Example 44, hydrochloride]", "IC50 [nM]": 3}
{"compound": "CCNC(=O)NCc1ccc(-c2cc(C(=O)N(C)c3ccc(O)cc3)c(C)n2C)c(C(=O)N2Cc3ccccc3C[C@H]2C)c1 [Example 36]", "IC50 [nM]": 71.4}
{"compound": "Cc1c(C(=O)N(C)c2ccc(O)cc2)cc(-c2cc(CCNC(=O)Cc3ccccc3)ccc2C(=O)N2Cc3ccccc3C[C@H]2C)n1C [Example 57]", "IC50 [nM]": 80}

A. Cc1c(C(=O)N(c2ccc(O)cc2)c2cnc3c(ccn3C)c2)cc(-c2cc(Cl)ccc2C(=O)N2Cc3ccccc3C[C@H]2CN2CCOCC2)n1C [Example 71, hydrochloride]
B. COc1ccc(N(C(=O)c2cc(-c3cc(Cl)ccc3C(=O)N3Cc4ccccc4C[C@H]3CN3CCOCC3)n(C)c2C)c2ccc(O)cc2)cc1C#N [Example 395, hydrochloride]
Q: Pick one: A or B . Which has the bigger IC50 number? Please respond with the label that marks your chosen entry.
Result: A

---

Target: Bcl-2 protein (histag-Bcl-2, UniProtKB P10415) (Homo sapiens (Human), UniProt P10415)
Experiment: Inhibition of Bcl-2 by the fluorescence polarisation technique
Format: binding
Conditions: incubation for 2 hours, read-out: IC50 (nM) Bcl-2 FP
Experimental: The fluorescence polarisation tests were carried out on microplates (384 wells). […] After incubation for 2 hours, the fluorescence polarisation is measured.
Counter-ions that a name gives are not always drawn.
attribute.measured: IC50 (nM)

Examples with their reported IC50 follow.
{"compound": "Cc1c(C(=O)N(c2ccc(O)cc2)c2cnc(F)cn2)cc(-c2cc(Cl)ccc2C(=O)N2Cc3ccccc3C[C@H]2CN2CCOCC2)n1C [Example 446, hydrochloride]", "system.tested": "Bcl-2 protein (histag-Bcl-2, UniProtKB P10415) (Homo sapiens (Human), UniProt P10415)", "IC50 (nM)": 7.8}
{"compound": "COc1ncc(N(C(=O)c2cc(-c3ccccc3C(=O)N3Cc4ccccc4C[C@H]3CN3CCOCC3)n(C)c2C)c2ccc(O)cc2)cn1 [Example 424, hydrochloride]", "system.tested": "Bcl-2 protein (histag-Bcl-2, UniProtKB P10415) (Homo sapiens (Human), UniProt P10415)", "IC50 (nM)": 13.6}
{"compound": "Cc1c(C(=O)N(c2ccc(O)cc2)c2cnc3c(ccn3C)c2)cc(-c2cc(Cl)ccc2C(=O)N2Cc3ccccc3CC2C(F)(F)F)n1C (centres unmarked) [Example 430]", "system.tested": "Bcl-2 protein (histag-Bcl-2, UniProtKB P10415) (Homo sapiens (Human), UniProt P10415)", "IC50 (nM)": 19.9}
{"compound": "Cc1c(C(=O)N(c2ccccc2)c2ccc(O)cc2)cc(-c2cc3c(cc2C(=O)N2Cc4ccccc4C[C@H]2C)OCO3)n1CCN1CCOCC1 [Example 97, hydrochloride]", "system.tested": "Bcl-2 protein (histag-Bcl-2, UniProtKB P10415) (Homo sapiens (Human), UniProt P10415)", "IC50 (nM)": 19}
{"compound": "COc1cc(-c2cc(C(=O)N(c3ccc(O)cc3)c3cnn(C)c3)c(C)n2C)c(C(=O)N2Cc3ccccc3C[C@H]2CN2CCOCC2)cc1F [Example 101, hydrochloride]", "system.tested": "Bcl-2 protein (histag-Bcl-2, UniProtKB P10415) (Homo sapiens (Human), UniProt P10415)", "IC50 (nM)": 21.1}
{"compound": "CN1CCN(C[C@@H]2Cc3ccccc3CN2C(=O)c2ccc(Cl)cc2-c2cc(C(=O)N(c3ccc(O)cc3)c3ccc4c(ccn4C)c3)cn2C2CC2)CC1 [Example 7]", "system.tested": "Bcl-2 protein (histag-Bcl-2, UniProtKB P10415) (Homo sapiens (Human), UniProt P10415)", "IC50 (nM)": 25.6}

I. Cc1c(C(=O)N(c2ccc(O)cc2)c2cnn(C3CCOC3)c2)cc(-c2cc(F)ccc2C(=O)N2Cc3ccccc3C[C@H]2CN2CCOCC2)n1C (single isomer, unassigned) [Example 403, hydrochloride]
II. COc1cc(C#N)cc(N(C(=O)c2cc(-c3cc(F)ccc3C(=O)N3Cc4ccccc4C[C@H]3CN3CCOCC3)n(C)c2C)c2ccc(O)cc2)c1 [Example 425, hydrochloride]
III. Cc1c(C(=O)N(c2ccc(O)c(F)c2)c2cnn(C)c2)cc(-c2cc(Cl)ccc2C(=O)N2Cc3ccccc3C[C@H]2CN2CCOCC2)n1C [Example 399, hydrochloride]
IV. CCn1c(C#N)cc(N(C(=O)c2cc(-c3cc(Cl)ccc3C(=O)N3Cc4ccccc4C[C@H]3CN3CCOCC3)n(C)c2C)c2ccc(O)cc2)c1C [Example 459, hydrochloride]
Q: Please rank these compounds by IC50 in descending order. Answer format: the labels, ordered as requested.
Result: I, III, II, IV
